# assay-method-text: protein stability index of a GFP-peptide fusion (GPS, HEK-293T) (PSI 1-6); higher = more stable;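 also: 24-mer peptide tiles fused after GFP, lentivirally expressed, FACS-sorted into six equal bins by GFP/DsRed ratio, decoded by Illumina sequencing, PSI is the read-weighted mean bin number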
# stated-conditions: treatment: MLN4924 1 uM, 8 h; c terminus: a fixed tail appended
The following sequences are shown together with reported protein stability index values.

Solved cases (3 shown):
## Task Look at this sequence and give its reported protein stability index. EKLLERQGQAKTPDSMFLAMLAVV [CDK11A]
## Result 2.2

## Task I'd like to know its protein stability index. The sequence in question is VPMILVGNKCDLEDERVVGKEQGQ [RAP1B]
## Result 4.72

## Task Reported protein stability index, sequence AMYIDTEGTFRPERLLAVAERYGL [RAD51] : ____
## Result 2.39

Next:
## Task // protein stability index lookup, key: TSIEEGYERSFIHKIKHKHILAKN [IQUB]
## Result 3.29

## Task Can you look up the measured protein stability index of GYSTPADIWSTACMAFELATGDYL [SRPK2] for me?
## Result 2.54

## Task What protein stability index value was documented for this sequence, SNSEKAKNIFRIRFHDPSPAQSHT [NET1] ?
## Result 3.06

## Task Consider the sequence IEEDMNNSIAHYRQVNIRTANCTT [KCNA1] and give its measured protein stability index.
## Result 3.57

---

# assay-method-text: protein stability index of a GFP-peptide fusion (GPS, HEK-293T) (PSI 1-6); higher = more stable
# stated-conditions: treatment: DMSO; c terminus: a fixed tail appended
test-readout: protein stability index

Guide cases for protein stability index, answers given:
## Task Look up protein stability index for this sequence: KMLRKEAAARCVVLDCRPYLAFAA [DUSP5]
## Result 2.77

## Task Suppose we examine the sequence PVQPGMLIDVCKYLGSLQYRVWKK [TRIM35] ; what protein stability index value has been reported?
## Result 2

## Task For the sequence shown here, VVVESMEQDRIPEVHVPPSSAVSG [MIA2] , give the reported protein stability index.
## Result 4.45

## Task Item under review: QRRPRVLSCLHSVCEQCLQILYES [RNF208] . Reported protein stability index?
## Result 2.32

## Task Entry PRLIAKVEGKGNGIKTVIVNMVDV [EIF5] has what protein stability index?
## Result 2.34

## Task I have this sequence here, AFGKICHMVSDGSWVVRVQAAKLL [INTS4] , and I need its recorded protein stability index.
## Result 2.74

## Task Value lookup for protein stability index; key = MEMTRPTPPHLTSAMAENILAAAC [NOL4L]
## Result 3.38

## Task Form field: reported protein stability index of AVLGLLLVLAAVVAWCYYSVSLRK [MYORG]
## Result 2.69

# ---- query sequence ----
## Task I would be grateful if you could share the reported protein stability index for LPLERDAESFLLKSPIAPCSLDKR [CDC25B] .
## Result 4.35

---

# assay-method-text: protein stability index of a GFP-peptide fusion (GPS, HEK-293T) (PSI 1-6); higher = more stable
# stated-conditions: treatment: DMSO; c terminus: a fixed tail appended
Below, each of the sequences is paired with its reported protein stability index value.

Consider the reported protein stability index for these sequences:
## Task Quick check: protein stability index of LMILRRVVNESTVCLMGHERRQTL [TENT5C] ?
## Result 2.33

## Task Item under review: AMYIDTEGTFRPERLLAVAERYGL [RAD51] . Reported protein stability index?
## Result 2.37

## Task Which protein stability index value is on record for EELAPVGTAHIPPTMHLESPALQV [ZNF449] ?
## Result 4.18

## Task Quick one: protein stability index of SYSIQKVIGFAKMIPGFRDLTSED [VDR] ?
## Result 2.52

## Task Field request: protein stability index | item: KYKVHGKEILRTLQDVFCWLPLAT [PPEF2]
## Result 3.08

## Task Entry under review: VLSRLQDAAVVRPGFLSTAEEETL [ALKBH7] . Reported protein stability index?
## Result 4.21

## Task What does the record list as protein stability index for SDSMTDVPVDTGVAARTPAVEGLT [TPD52L2] ?
## Result 5.3

## Task If you can, please state the reported protein stability index value of ETQEQDVDLVQKYLEKYYNLKNDG [MMP1] .
## Result 3.99

## Task Which protein stability index reading was recorded for the sequence QQQIHHIKNLYAFNLFCQKRFDES [VPS39] ?
## Result 2.29

## Task Please report the recorded protein stability index for AIHGYTVWAHNLIAIARLRGSDLK [FBXO33] .
## Result 3.13

***
## Task Param item = NLIYRSTRHLKRLALMIQSSGNTV [TMEM192] ; retrieve measured protein stability index.
## Result 2.93

## Task Entry under review: LKSKAEAEALYQTKFQELQLAAGR [KRT71] . Reported protein stability index?
## Result 3.73

## Task # query: protein stability index of entry FKRTIQGSIEYSCPASNECEITKR [ESRRA]
## Result 3.88

## Task Item LKYENELALRQGVEADINGLRRVL [KRT15] has what recorded protein stability index?
## Result 3.35

## Task What value of measured protein stability index is listed for RAYQYTTLTSVQLLDCFGIPVLMA [SLC35F2] ?
## Result 3.13

## Task Value lookup for protein stability index; key = QSYPSQDKPLPPPPPGSLSRTQEP [SOAT2]
## Result 5.2

## Task # protein stability index lookup, item AIFDAGTLGGELGALEALELSPPL [FOXJ1]
## Result 3.26

## Task Item IRPDPRSRVTDPVGDIVSFMHSFE [FAF2] has what recorded protein stability index?
## Result 3.06

## Task Return reported protein stability index; argument: SLRKSNTLCDVTLRVEQKDFPAHR [KLHL12]
## Result 3.58

## Task Request the reported protein stability index associated with EQTAPGDSTGYMEVSLDSLDLRVK [EHMT1]
## Result 4.59

## Task Would you kindly share the measured protein stability index for EAAEGKSLGSALKPGEGRSALFAG [TRIM29] ?
## Result 4.87

## Task What protein stability index value was documented for this sequence, QDFNTMFTNCYIYNKPTDDIVLMA [BRD3] ?
## Result 2.12

## Task What value of protein stability index has been reported for the following sequence? LSLLELLELLLDASALTLVLGGRR [SCNN1D]
## Result 2.99

## Task # get_value(readout='protein stability index', item= SNPNGNGGFMGYSAENIPGCSSSG [CRY1] )
## Result 4.57

## Task What does the record list as protein stability index for RLAELEAQVRKLELERAQHELLLG [FBF1] ?
## Result 2.97

## Task State the recorded protein stability index for this entry: EINPPPHTMEEEEDDDWGEDTTEE [EIF5]
## Result 5.52

## Task State the recorded protein stability index for this entry: CIFDKFECVWNGSDSVIMTGSYNN [PPP2R2B]
## Result 2.27

---

# assay-method-text: protein stability index of a GFP-peptide fusion (GPS, HEK-293T) (PSI 1-6); higher = more stable
# stated-conditions: treatment: DMSO; c terminus: a fixed tail appended
test-readout: protein stability index

Below: 3 sequences and their reported protein stability index.
## Task State the recorded protein stability index for this entry: GYSTPADIWSTACMAFELATGDYL [SRPK2]
## Result 2.1

## Task Please give the measured protein stability index for this sequence: TAEAEELKPFFMKEVGSHFDDFVT [SOAT1]
## Result 3.91

## Task May I ask what protein stability index has been recorded for KPKIEDVGSDEEDDSGKDKKKKTK [HSP90AB1] ?
## Result 5.54

Continuing:
## Task GET /values?readout=protein stability index&item= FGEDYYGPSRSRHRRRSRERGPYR [CLK3]
## Result 3.27

## Task What value of protein stability index has been recorded for this entry: MGRKRLITDSYPVVKRREGPAGHS [POLD4]
## Result 3.33

## Task Reported protein stability index, sequence AGFDALQGDPKGEMAATPAGFAQL [HDAC6] : ____
## Result 4.37

## Task Please give the measured protein stability index for this sequence: KEETNHSEMAEDLCKIGSERSLVL [IKZF1]
## Result 4.69

## Task Can you share its protein stability index? I mean this sequence: LNELPVPMVARYIRINPQSWFDNG [CPXM2]
## Result 2.21

---

# assay-method-text: protein stability index of a GFP-peptide fusion (GPS, HEK-293T) (PSI 1-6); higher = more stable
# stated-conditions: treatment: DMSO; c terminus: a fixed tail appended
test-readout: protein stability index
The answer should be a number; do not append a unit.

## Task # get_value(readout='protein stability index', item= IEDFQQKILLTKSENARLVLQIDN [KRT36] )
## Result 2.79

## Task Need protein stability index of TPHTPKSLLSKARGIDSSSVKLRG [WEE1] , thanks.
## Result 4.26
